Entries and their LD50
test: Acute toxicity, mouse; conditions: in vivo, po, female

CC(/C=C/[C@@]1(C)[C@H](C)CCC(=O)[C@@H]1C)=C\Cc1c(O)c(Cl)c(C)c(C=O)c1O [ascochlorin, reference compound] :: > 5000 mg/kg

[ask] Consider the compound shown here: COc1c(Cl)c(C)c(C=O)c(O)c1C/C=C(C)/C=C/C1(C)C(C)CCC(=O)C1C (centres unmarked) What is its recorded LD50?
[reply] > 7300 mg/kg

====

assay: Acute toxicity, rat; conditions: in vivo, ip, male
Readout Type: LD50

Worked cases, answers included:
CC(/C=C/[C@@]1(C)[C@H](C)CCC(=O)[C@@H]1C)=C\Cc1c(O)c(Cl)c(C)c(C=O)c1O [ascochlorin, reference compound] :: 258 mg/kg
COc1c(Cl)c(C)c(C=O)c(O)c1C/C=C(C)/C=C/C1(C)C(C)CCC(=O)C1C (stereo not drawn) :: 3100 mg/kg

Turning now to a further molecule:
[ask] Consider the molecule shown here: CCOc1c(Cl)c(C)c(C=O)c(O)c1C/C=C(C)/C=C/C1(C)C(C)CCC(=O)C1C (stereo not drawn) What is its recorded LD50?
[reply] 5100 mg/kg

====

assay: Acute toxicity, rat; details: in vivo, male, oral
Readout Type: LD50

COc1c(Cl)c(C)c(C=O)c(O)c1C/C=C(C)/C=C/C1(C)C(C)CCC(=O)C1C (centres unmarked) :: > 10000 mg/kg

Turning now to a further molecule:
[ask] Consider the molecule shown here: CC(/C=C/[C@@]1(C)[C@H](C)CCC(=O)[C@@H]1C)=C\Cc1c(O)c(Cl)c(C)c(C=O)c1O [ascochlorin, reference compound] What is its recorded LD50?
[reply] > 7000 mg/kg

====

Entries and their LD50
assay: Acute toxicity, mouse; conditions: in vivo, ip, male
Value expressed in mg/kg; do not type the unit.

CCOc1c(Cl)c(C)c(C=O)c(O)c1C/C=C(C)/C=C/C1(C)C(C)CCC(=O)C1C (stereo not drawn) [4-O-ethylascochlorin] :: 5600
COc1c(Cl)c(C)c(C=O)c(O)c1C/C=C(C)/C=C/C1(C)C(C)CCC(=O)C1C (stereo not drawn) [4-O-methylascochlorin] :: 5000

Turning now to a further compound:
[ask] Consider the compound shown here: CC(/C=C/[C@@]1(C)[C@H](C)CCC(=O)[C@@H]1C)=C\Cc1c(O)c(Cl)c(C)c(C=O)c1O [ascochlorin, reference compound] What is its recorded LD50?
[reply] 102
